Origin of the recorded values: paper PMC12562155

- target.or.system: urinary angiotensin-converting enzyme (uACE) (Homo sapiens, UniProt P12821)
- Construct: from tissue; host or cells: human urine (native, or retentate of 10 kDa / 30 kDa Vivaspin 20 membrane filters)
- Sequence (P12821 30-1232 limits assumed): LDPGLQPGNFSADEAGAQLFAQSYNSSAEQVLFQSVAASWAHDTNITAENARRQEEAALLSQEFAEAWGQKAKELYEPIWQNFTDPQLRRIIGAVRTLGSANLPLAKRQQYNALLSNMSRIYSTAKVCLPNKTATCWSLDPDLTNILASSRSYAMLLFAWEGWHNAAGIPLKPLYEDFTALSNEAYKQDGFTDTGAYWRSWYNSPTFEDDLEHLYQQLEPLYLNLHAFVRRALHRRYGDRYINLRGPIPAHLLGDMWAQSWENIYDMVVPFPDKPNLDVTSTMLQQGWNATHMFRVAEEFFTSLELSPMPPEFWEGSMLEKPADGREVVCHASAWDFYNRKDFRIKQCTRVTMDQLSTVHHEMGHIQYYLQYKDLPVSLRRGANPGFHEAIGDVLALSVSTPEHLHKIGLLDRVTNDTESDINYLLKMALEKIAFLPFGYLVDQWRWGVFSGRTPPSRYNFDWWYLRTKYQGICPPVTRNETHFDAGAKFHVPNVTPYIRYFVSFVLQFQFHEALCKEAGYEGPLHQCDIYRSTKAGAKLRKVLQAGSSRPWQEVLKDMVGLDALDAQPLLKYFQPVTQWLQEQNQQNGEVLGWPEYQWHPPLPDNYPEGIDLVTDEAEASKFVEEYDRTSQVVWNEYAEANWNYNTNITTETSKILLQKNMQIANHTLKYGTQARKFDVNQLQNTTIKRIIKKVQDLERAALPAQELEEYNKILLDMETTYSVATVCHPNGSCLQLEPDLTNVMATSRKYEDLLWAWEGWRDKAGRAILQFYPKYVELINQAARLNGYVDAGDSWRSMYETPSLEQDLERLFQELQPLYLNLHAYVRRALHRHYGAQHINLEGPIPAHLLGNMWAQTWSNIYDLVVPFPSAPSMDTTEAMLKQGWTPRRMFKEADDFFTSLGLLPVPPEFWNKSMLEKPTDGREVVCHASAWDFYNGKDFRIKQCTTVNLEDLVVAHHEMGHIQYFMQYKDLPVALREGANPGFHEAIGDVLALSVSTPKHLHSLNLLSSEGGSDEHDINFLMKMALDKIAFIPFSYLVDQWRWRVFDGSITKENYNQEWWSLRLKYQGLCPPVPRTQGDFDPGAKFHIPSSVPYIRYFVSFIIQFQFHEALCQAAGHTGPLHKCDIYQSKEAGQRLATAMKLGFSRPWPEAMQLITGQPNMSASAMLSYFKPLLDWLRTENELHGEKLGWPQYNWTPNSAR
- experimental.details: Fluorescent kinetic uACE activity assay with ACE-specific inhibitors and inhibitors of other proteases (sensitivity testing)
- Format: biochemical
- condition.set: peptidase inhibitors, inhibitor-free 10 kDa retentate
observation.type: effect on measured uACE activity

molecule	observation.type	recorded.measurement
CC(C)C[C@H](N[C@@H](Cc1cncn1Cc1cc(Cl)cc(Cl)c1)C(=O)O)C(=O)O	effect on measured uACE activity	had no effect
CC(C)C[C@@H](N)[C@H](O)C(=O)N[C@H](C(=O)N[C@H](C(=O)N[C@@H](CC(=O)O)C(=O)O)C(C)C)C(C)C.Cl [Amastatin hydrochloride]	effect on measured uACE activity	had no effect
